Biological target: human GPR40 (Homo sapiens, UniProt O14842)
Construct: expressed in transfected cells; host or cells: HEK cells stably expressing the aequorin reporter
Sequence (O14842 whole entry): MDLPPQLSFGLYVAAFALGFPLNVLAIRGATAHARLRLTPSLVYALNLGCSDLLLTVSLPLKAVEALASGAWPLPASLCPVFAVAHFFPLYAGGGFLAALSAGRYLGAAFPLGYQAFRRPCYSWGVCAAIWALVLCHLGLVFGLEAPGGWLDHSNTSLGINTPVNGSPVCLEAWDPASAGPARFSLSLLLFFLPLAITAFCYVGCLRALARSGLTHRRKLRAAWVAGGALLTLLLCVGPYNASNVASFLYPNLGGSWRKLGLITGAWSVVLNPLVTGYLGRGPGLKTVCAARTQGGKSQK
Test: Inositol Phosphate Turnover (IP1) Assay 3
Format: cell-based
Conditions: HEK cells stably expressing human GPR40
reported_property: EC50 (nM)

compound	measured_value
COc1cc(-c2ccc(C3CCc4ccc([C@H](C5CC5)[C@H](C)C(=O)O)cc4O3)c(CN3CCCC[C@@H]3C)c2)c(F)cn1 (stereo partly drawn)	0.09
COc1cc(-c2ccc(C3CCc4ccc([C@H](C5CC5)[C@H](C)C(=O)O)cc4O3)cc2CN2C(C)(C)CCCC2(C)C)ccn1 (stereo partly drawn)	0.14

P = CCN(Cc1cc(C2CCc3ccc([C@H](C4CC4)[C@H](C)C(=O)O)cc3O2)ccc1-c1cc(OC)ncc1F)C(C)C (stereo partly drawn)
Q = CCN(Cc1cc(C2CCc3ccc([C@H](C4CC4)[C@H](C)C(=O)O)cc3O2)ccc1-c1cc(OC)ncc1F)C(C)(C)C (stereo partly drawn)
R = COCC(c1cc([C@H]2CCc3ccc([C@H](C4CC4)[C@H](C)C(=O)O)cc3O2)ccc1-c1ccnc(OC)c1)N1CCCC1 (mixture of isomers)
S = COc1cc(-c2ccc(C3CCc4ccc([C@H](C5CC5)[C@H](C)C(=O)O)cc4O3)c(CN3CCC[C@H]3C)c2)ccn1 (single isomer, unassigned) [Example 119b]
Write the entries in order, lowest recorded EC50 first. Answer format: list of labels, ordered as asked. Q, P, S, R

Origin of measurements: patent US10968193B2
